// reported pIC50 per item
- SYSTEM TESTED: recombinant human HDAC1 (Homo sapiens (Human), UniProt Q13547)
- Sequence (Q13547 whole entry): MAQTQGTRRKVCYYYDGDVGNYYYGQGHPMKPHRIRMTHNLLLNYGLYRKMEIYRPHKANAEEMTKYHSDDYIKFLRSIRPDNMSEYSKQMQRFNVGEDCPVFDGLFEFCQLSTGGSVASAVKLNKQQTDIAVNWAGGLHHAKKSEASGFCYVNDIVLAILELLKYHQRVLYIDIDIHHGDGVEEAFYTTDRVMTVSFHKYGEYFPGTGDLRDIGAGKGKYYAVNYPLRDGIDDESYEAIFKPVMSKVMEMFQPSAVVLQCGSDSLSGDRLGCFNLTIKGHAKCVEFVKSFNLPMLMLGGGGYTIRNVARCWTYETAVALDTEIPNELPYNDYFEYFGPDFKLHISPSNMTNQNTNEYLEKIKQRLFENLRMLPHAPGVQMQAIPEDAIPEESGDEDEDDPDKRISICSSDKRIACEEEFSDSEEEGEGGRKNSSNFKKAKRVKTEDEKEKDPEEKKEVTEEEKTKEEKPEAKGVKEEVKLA
- MEASUREMENT NOTES: Enzymatic screening, HDAC1 inhibition (fluorogenic FdL_G substrate)
- Type: biochemical
pIC50: −log10 of the molar value.

The following compounds have reported results that may help.
COMPOUND | pIC50
Nc1ccc(-c2ncc(Cc3ccc(-c4nnc(C(F)F)o4)cc3)o2)cc1 [compound 330] | < 3.00
Nc1ccc(-c2cn(Cc3ccc(-c4nnc(C(F)F)o4)cn3)nn2)cn1 [compound 5] | < 3.70
O=C1Nc2ccc(-c3cn(Cc4ccc(-c5nnc(C(F)F)o5)cn4)nn3)cc2C12CCNCC2 [Compd. 19] | < 3.70
O=C1Nc2ccc(-c3nnn(Cc4ccc(-c5nnc(C(F)F)o5)cc4)n3)cc2NC12CCCC2 [compound 110] | < 3.70
CC(c1ccc(-c2nnc(C(F)F)o2)cc1)n1cc(-c2ccc(N)nc2)nn1 (centres unmarked) [Compd. 117] | < 3.70

The reported value for CN(Cc1ccncc1)Cc1ccc(-c2cn(Cc3c(F)cc(-c4nnc(C(F)F)o4)cc3F)nn2)cc1 [compound 179] in terms of pIC50 is < 3.70

pIC50 recorded for this compound, Nc1ccc(-c2cn([C@@H](CN3CCCC3)c3ccc(-c4nnc(C(F)F)o4)cc3)nn2)cn1 [compound 312] , is < 3.00

Noted for NC(=O)c1cccc(-c2nnn(Cc3ccc(-c4nnc(C(F)F)o4)c(F)c3)n2)c1 [compound 89] : its pIC50 reads < 3.70

###

residual percentage in HUMAN S9 FRACTION reference
- MEASUREMENT NOTES: Stability to Phase I metabolism in human S9 liver fraction
- CONDITION CONTEXT: after 90 minutes, 37° C.
Please reply with the bare figure in % and do not write the unit itself.

Here are 3 molecules together with their reported answers.
COMPOUND SMILES | RESULT UNIT | residual percentage in HUMAN S9 FRACTION
Nc1ccc(-c2cnn(Cc3ccc(-c4nnc(C(F)F)o4)cn3)c2)cn1 | % | 97
Nc1nc2cc(-c3cn(Cc4ccc(-c5nnc(C(F)F)o5)cn4)nn3)ccc2s1 | % | 97
CC(=O)Nc1cc(-c2nnn(Cc3ccc(-c4nnc(C(F)F)o4)cc3)n2)cnc1C | % | 98

# residual percentage in HUMAN S9 FRACTION (molecule: `FC(F)c1nnc(-c2ccc(Cn3nnc(-c4cccc(-c5nc6c([nH]5)CCNC6)c4)n3)cc2)o1` ) is 96

###

Below: a set of entries, each annotated with reported residual percentage in HUMAN PLASMA.
- MEASUREMENT NOTES: Stability in human plasma
- CONDITION CONTEXT: after 4 hours, 37° C.
# unit: % | format: bare number

The cases that follow already have their residual percentage in HUMAN PLASMA on record.
COMPOUND | residual percentage in HUMAN PLASMA / %
CC[C@H](c1ccc(-c2nnc(C(F)F)o2)cc1)n1cc(-c2ccc(N)nc2)nn1 (stereo in doubt) | 90
Nc1ncc(-c2nnn(Cc3ccc(-c4nnc(C(F)F)o4)cc3)n2)cn1 | 85
CN1CCC(NC(=O)c2cccc(-c3nnn(Cc4ccc(-c5nnc(C(F)F)o5)cc4)n3)c2)CC1 | 97
CS(=O)(=O)NCCC(c1ccc(-c2nnc(C(F)F)o2)cc1)c1cn(-c2ccc(N)nc2)nn1 (centres unmarked) | 88
FC(F)c1nnc(-c2ccc(Cn3cc(-c4ccc5nc(Cl)[nH]c5c4)nn3)nc2)o1 | 59

residual percentage in HUMAN PLASMA for `NC(=O)c1cccc(-c2nnn(Cc3ccc(-c4nnc(C(F)F)o4)cc3)n2)c1` is 96

Recorded result, `C[C@H](c1ccc(-c2nnc(C(F)F)o2)cc1)n1cc(-c2ccc(N)nc2)nn1` , residual percentage in HUMAN PLASMA: 86

Record O=C1Nc2ccc(-c3cn(Cc4ccc(-c5nnc(C(F)F)o5)cn4)nn3)cc2C12CCNC2 (centres unmarked) [compound 28] , field residual percentage in HUMAN PLASMA: 74
